- Test system: GH3-TRE-Luc cell line
- settings: read-out: AC50 (uM) modified / 1000; Tox21_110001=Tox21_300668; viability, 1 nM T3 present, 24 h
measured_endpoint: CC50 (µM)
Only the number, expressed in µM, is required.

Input: Fill: CC50 (GH3-TRE-Luc cell line) for this compound CC(C)Oc1cc(-n2nc(C(C)(C)C)oc2=O)c(Cl)cc1Cl
Output: 74.7

* * *

- assay: in vitro
- settings: rat, gh3-tre-luc cells, AC50 (uM) modified / 1000, Tox21_110001=Tox21_110330; viability, 1 nM T3 present, 24 h
measured_endpoint: CC50 at 24 h

Input: Dear colleague, please send me the reported CC50 at 24 h for CCC(=O)O[C@H]1CC[C@H]2[C@@H]3CCC4=CC(=O)CC[C@]4(C)[C@H]3CC[C@]12C [Testosterone propionate] when you can.
Output: > 20 µM

* * *

- System: GH3-TRE-Luc cell line
- settings: read-out: AC50 (uM) modified / 1000; Tox21_110001=Tox21_303612; viability, 1 nM T3 present, 24 h
Counter-ions that a name gives are not always drawn.
measured_endpoint: CC50 (µM)
Only the number, expressed in µM, is required.

Input: Dear colleague, please send me the reported CC50 for CN(C)CCC=C1c2ccccc2CCc2ccccc21 [Amitriptyline hydrochloride] when you can.
Output: 13.7

* * *

- assay: in vitro
- settings: rat, gh3-tre-luc cells, AC50 (uM) modified / 1000, Tox21_110001=Tox21_112842; viability, 1 nM T3 present, 24 h
measured_endpoint: CC50 at 24 h

Input: Dear colleague, please send me the reported CC50 at 24 h for COc1cc(CC(C)N)cc2c1OCO2 (stereo not shown) when you can.
Output: > 100 µM

* * *

- System: GH3-TRE-Luc cell line
- settings: read-out: AC50 (uM) modified / 1000; Tox21_110001=Tox21_300507; viability, 1 nM T3 present, 24 h
measured_endpoint: CC50
Reply with the number and its unit after it.

Input: Dear colleague, please send me the reported CC50 for Cc1ccc(N)c(N)c1 when you can.
Output: 18.4 µM

* * *

- assay: in vitro
- settings: rat, gh3-tre-luc cells, AC50 (uM) modified / 1000, Tox21_110001=Tox21_111251; viability, 1 nM T3 present, 24 h
Structures can show the parent of a compound that is named as a salt.
measured_endpoint: CC50 at 24 h

Input: Dear colleague, please send me the reported CC50 at 24 h for C[C@]12N[C@H](Cc3ccccc31)c1ccccc12 [Dizocilpine maleate] when you can.
Output: > 50 µM

* * *

- Test system: GH3-TRE-Luc cell line
- settings: read-out: AC50 (uM) modified / 1000; Tox21_110001=Tox21_303480; viability, 1 nM T3 present, 24 h
Counter-ions that a name gives are not always drawn.
measured_endpoint: CC50 (µM)
Only the number, expressed in µM, is required.

Input: Dear colleague, please send me the reported CC50 for CN1CCc2cccc3c2[C@H]1Cc1ccc(O)c(O)c1-3 [Apomorphine hydrochloride hydrate] when you can.
Output: 26.7

* * *

- Test system: GH3-TRE-Luc cell line
- settings: read-out: AC50 (uM) modified / 1000; Tox21_110001=Tox21_111900; viability, 1 nM T3 present, 24 h
measured_endpoint: CC50 (µM)
Only the number, expressed in µM, is required.

Input: Fill: CC50 (GH3-TRE-Luc cell line) for this molecule COc1ccc(C(=O)/C(Br)=C\C(=O)O)cc1 [Bromebric acid]
Output: 31.6

* * *

- Tested on: GH3-TRE-Luc cell line
- settings: read-out: AC50 (uM) modified / 1000; Tox21_110001=Tox21_302198; viability, 1 nM T3 present, 24 h
measured_endpoint: CC50 (µM)
Only the number, expressed in µM, is required.

Input: Dear colleague, please send me the reported CC50 for CCCCCCCC[N+](C)(CCCCCCCC)CCCCCCCC [Methyltrioctylammonium chloride] when you can.
Output: 5.04

* * *

- Test system: GH3-TRE-Luc cell line
- settings: read-out: AC50 (uM) modified / 1000; Tox21_110001=Tox21_202653; viability, 1 nM T3 present, 24 h
measured_endpoint: CC50 (µM)
Only the number, expressed in µM, is required.

Input: Dear colleague, please send me the reported CC50 for CCCCCCCC[n+]1ccn(C)c1 [1-Methyl-3-octylimidazolium bromide] when you can.
Output: 31.6

* * *

- assay: in vitro
- settings: rat, gh3-tre-luc cells, AC50 (uM) modified / 1000, Tox21_110001=Tox21_300421; viability, 1 nM T3 present, 24 h
measured_endpoint: CC50 at 24 h

Input: Dear colleague, please send me the reported CC50 at 24 h for CCC(C)c1cc([N+](=O)[O-])cc([N+](=O)[O-])c1O (stereo not shown) when you can.
Output: 20.4 µM

* * *

- assay: in vitro
- settings: rat, gh3-tre-luc cells, AC50 (uM) modified / 1000, Tox21_110001=Tox21_202898; viability, 1 nM T3 present, 24 h
measured_endpoint: CC50 at 24 h

Input: Dear colleague, please send me the reported CC50 at 24 h for CCCCCON=O when you can.
Output: > 90 µM

* * *

- assay: in vitro
- settings: rat, gh3-tre-luc cells, AC50 (uM) modified / 1000, Tox21_110001=Tox21_300317; viability, 1 nM T3 present, 24 h
measured_endpoint: CC50 at 24 h (µM)
Only the number, expressed in µM, is required.

Input: Dear colleague, please send me the reported CC50 at 24 h for CC(C)(c1ccccc1)c1ccc(O)c(C(C)(C)c2ccccc2)c1 when you can.
Output: 11.2

* * *

- Test system: GH3-TRE-Luc cell line
- settings: read-out: AC50 (uM) modified / 1000; Tox21_110001=Tox21_110862; viability, 1 nM T3 present, 24 h
Counter-ions that a name gives are not always drawn.
measured_endpoint: CC50 (µM)
Only the number, expressed in µM, is required.

Input: Dear colleague, please send me the reported CC50 for CN(C)CCOc1ccccc1Cc1ccccc1 [Phenyltoloxamine citrate] when you can.
Output: 9.16

* * *

- assay: in vitro
- settings: rat, gh3-tre-luc cells, AC50 (uM) modified / 1000, Tox21_110001=Tox21_201575; viability, 1 nM T3 present, 24 h
measured_endpoint: CC50 at 24 h

Input: Dear colleague, please send me the reported CC50 at 24 h for COCCl [Chloromethyl methyl ether] when you can.
Output: > 90 µM

* * *

- System: GH3-TRE-Luc cell line
- settings: read-out: AC50 (uM) modified / 1000; Tox21_110001=Tox21_302880; viability, 1 nM T3 present, 24 h
measured_endpoint: CC50 (µM)
Only the number, expressed in µM, is required.

Input: Dear colleague, please send me the reported CC50 for CN(C)C(=S)SC(=S)N(C)C [Tetramethylthiuram monosulfide] when you can.
Output: 0.329

* * *

- Tested on: GH3-TRE-Luc cell line
- settings: read-out: AC50 (uM) modified / 1000; Tox21_110001=Tox21_300114; viability, 1 nM T3 present, 24 h
measured_endpoint: CC50
Reply with the number and its unit after it.

Input: Dear colleague, please send me the reported CC50 for CC(C)(C)c1ccc(O)c(C(C)(C)C)c1 [2,4-Di-tert-butylphenol] when you can.
Output: 29.7 µM

* * *

- assay: in vitro
- settings: rat, gh3-tre-luc cells, AC50 (uM) modified / 1000, Tox21_110001=Tox21_110303; viability, 1 nM T3 present, 24 h
measured_endpoint: CC50 at 24 h

Input: Dear colleague, please send me the reported CC50 at 24 h for Cc1cccc(C)c1N=C1NCCCS1 when you can.
Output: > 50 µM

* * *

Reported CC50 at 24 h is given for each of the following molecules.
- assay: in vitro
- settings: rat, gh3-tre-luc cells, AC50 (uM) modified / 1000
Structures can show the parent of a compound that is named as a salt.

Below, 4 molecules whose answers are already recorded.
CC/C=C\CCOC(=O)c1ccccc1 [(3Z)-Hex-3-en-1-yl benzoate]	> 90 µM
C=CCN=C=S [Allyl isothiocyanate]	> 90 µM
CCC(=O)C(CC(C)N(C)C)(c1ccccc1)c1ccccc1 (stereo not shown) [Methadone hydrochloride]	28.5 µM
OCCOCC#CCOCCO [1,4-Bis(2-hydroxyethoxy)-2-butyne]	> 90 µM

Input: Dear colleague, please send me the reported CC50 at 24 h for Cc1c(Cn2ccnc2)c2ccccc2n1CCC(=O)O when you can.
Output: > 50 µM

* * *

- assay: in vitro
- settings: rat, gh3-tre-luc cells, AC50 (uM) modified / 1000, Tox21_110001=Tox21_302174; viability, 1 nM T3 present, 24 h
measured_endpoint: CC50 at 24 h

Input: Dear colleague, please send me the reported CC50 at 24 h for COc1cc2c(cc1OC)[C@@]13CCN4CC5=CCO[C@H]6CC(=O)N2[C@H]1[C@H]6[C@H]5C[C@H]43 [Brucine] when you can.
Output: > 90 µM

Reference source: paper PMC6792352
